# Test system: Hep G2
# Type: cell-based
# condition-notes: human, 24 h, 12.5 μM
quantity: Percentage of viable cells after treatment (%)
Could you give me the number in %? Just the number is fine.

CC[C@H]1OC(=O)[C@H](C)[C@@H](OC(=O)CCN2CCN(CCN(C)C)CC2)[C@H](C)[C@@H](O[C@@H]2O[C@H](C)C[C@H](N(C)C)[C@H]2O)[C@](C)(OC)C[C@@H](C)C(=O)N[C@H](C)[C@@H](O)[C@]1(C)O
100

Briefly, Percentage of viable cells after treatment measured for "CC[C@H]1OC(=O)[C@H](C)[C@@H](OC(=O)CCN(C)CCO)[C@H](C)[C@@H](O[C@@H]2O[C@H](C)C[C@H](N(C)C)[C@H]2O)[C@](C)(OC)C[C@@H](C)C(=O)N[C@H](C)[C@@H](O)[C@]1(C)O" : 100

* * *

# Percentage of viable cells after treatment listing for each entry below
# Test system: A549
# Format: cell-based
# condition-notes: human, 24 h, 50 μM
Report the value in % with no unit label.

CC[C@H]1OC(=O)[C@H](C)[C@@H](O[C@H]2C[C@@](C)(OC)[C@@H](O)[C@H](C)O2)[C@H](C)[C@@H](O[C@@H]2O[C@H](C)C[C@H](N(C)C)[C@H]2O)[C@](C)(OC)C[C@@H](C)C(=O)[C@H](C)[C@@H](O)[C@]1(C)O [clarithromycin, reference compound]
100

Pending molecule:
molecule CC[C@H]1OC(=O)[C@H](C)[C@@H](OC(=O)CCN2CCN(CCN(CC)CC)CC2)[C@H](C)[C@@H](O[C@@H]2O[C@H](C)C[C@H](N(C)C)[C@H]2O)[C@](C)(OC)C[C@@H](C)C(=O)N[C@H](C)[C@@H](O)[C@]1(C)O [Example 18] , Percentage of viable cells after treatment observed: 100

* * *

# Test system: human IL-1β
# test-summary: Inhibition of IL-1β production by stimulated human peripheral blood leukocytes in vitro (ELISA)
# Format: cell-based
# condition-notes: Homo sapiens, Leukocyte, PBL, zymosan stimulation, compound 50 μM; read-out: Percentage of inhibition of IL-1β production
Note to self: values exactly at 80% are true (1). So inhibition at 50 µM at or above 80% is true (1), below is false (0).

Recorded results for 6 compounds are shown here.
CC[C@H]1OC(=O)[C@H](C)[C@@H](OC(=O)CCN(CC)CC)[C@H](C)[C@@H](O[C@@H]2O[C@H](C)C[C@H](N(C)C)[C@H]2O)[C@](C)(OC)C[C@@H](C)C(=O)[C@H](C)[C@@H](O)[C@]1(C)O
true (1)
CC[C@H]1OC(=O)[C@H](C)[C@@H](OC(=O)CCN(C)CCO)[C@H](C)[C@@H](O[C@@H]2O[C@H](C)C[C@H](N(C)C)[C@H]2O)[C@](C)(OC)C[C@@H](C)C(=O)N[C@H](C)[C@@H](O)[C@]1(C)O
true (1)
CC[C@H]1OC(=O)[C@H](C)[C@@H](O[C@H]2C[C@@](C)(OC)[C@@H](O)[C@H](C)O2)[C@H](C)[C@@H](O[C@@H]2O[C@H](C)C[C@H](N(C)C)[C@H]2O)[C@](C)(O)C[C@@H](C)CN(C)[C@H](C)[C@@H](O)[C@]1(C)O [azithromycin, reference compound]
false (0)
CC[C@H]1OC(=O)[C@H](C)[C@@H](OC(=O)CCN(CC)CC)[C@H](C)[C@@H](O[C@@H]2O[C@H](C)C[C@H](NC)[C@@H]2O)[C@](C)(OC)C[C@@H](C)C(=O)N[C@H](C)[C@@H](O)[C@]1(C)O
true (1)
C=CC(=O)O[C@H]1[C@H](C)[C@@H](O[C@@H]2O[C@H](C)C[C@H](N(C)C)[C@H]2O)[C@](C)(OC)C[C@@H](C)C(=O)[C@H](C)[C@@H](O)[C@](C)(O)[C@@H](CC)OC(=O)[C@@H]1C
true (1)
CC[C@H]1OC(=O)[C@H](C)[C@@H](OC(=O)CCN(CC)CC)[C@H](C)[C@@H](O[C@@H]2O[C@H](C)C[C@H](N(C)C)C2O)[C@](C)(O)C[C@@H](C)CN(C)[C@H](C)[C@@H](O)[C@]1(C)O (stereo in doubt)
false (0)

Now, please, on to the next compound.
IN: Has CC[C@H]1OC(=O)[C@H](C)[C@@H](O[C@H]2C[C@@](C)(OC)[C@@H](O)[C@H](C)O2)[C@H](C)[C@@H](O[C@@H]2O[C@H](C)C[C@H](N(C)C)[C@H]2O)[C@](C)(OC)C[C@@H](C)C(=O)[C@H](C)[C@@H](O)[C@]1(C)O [clarithromycin, reference compound] a recorded inhibition at 50 µM greater than or equal to 80%?
OUT: false (0)
